The reported measurements were obtained from patent US20260176319A1.

# System under test: human GRP receptor (human, UniProt P30550 1-384)
# Sequence (P30550 whole entry): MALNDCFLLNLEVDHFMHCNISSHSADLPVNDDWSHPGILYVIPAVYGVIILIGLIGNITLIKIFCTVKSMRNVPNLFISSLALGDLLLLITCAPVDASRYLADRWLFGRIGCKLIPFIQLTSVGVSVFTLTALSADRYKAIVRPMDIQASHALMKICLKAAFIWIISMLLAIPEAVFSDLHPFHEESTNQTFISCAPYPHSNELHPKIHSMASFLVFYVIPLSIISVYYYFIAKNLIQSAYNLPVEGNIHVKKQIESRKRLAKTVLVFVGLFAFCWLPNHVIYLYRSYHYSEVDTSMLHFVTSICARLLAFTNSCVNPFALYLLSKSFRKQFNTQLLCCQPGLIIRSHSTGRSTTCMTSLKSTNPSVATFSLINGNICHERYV
# Method: cell-based or functional assay
Starred links: 1 amine or outer side, 2 acyl side, 3 side chain; linkers in the order of their positions; H or OH if unused. Non-standard residues stand in square brackets, D forms with d. *: point of attachment. Trp(6-Me) = Cc1ccc2c(C[C@H](N)C(=O)O)c[nH]c2c1; d(γGlu) = O=C(O)[C@@H](CCC(=O)[*:2])N[*:1]; C18 diacid = O=C(O)CCCCCCCCCCCCCCCCC(=O)*; Palmitoyl = CCCCCCCCCCCCCCCC(=O)*; Nle = CCCC[C@H](N)C(=O)O; AEEA = NCCOCCOCC(=O)O; Sar = CNCC(=O)O

{"Binder": "{C18 diacid}-[d(γGlu)][AEEA][AEEA]GNH[Trp(6-Me)]AV[dA]HL[Nle]-NH2 (SMILES CCCC[C@H](NC(=O)[C@H](CC(C)C)NC(=O)[C@H](Cc1c[nH]cn1)NC(=O)[C@@H](C)NC(=O)[C@@H](NC(=O)[C@H](C)NC(=O)[C@H](Cc1c[nH]c2cc(C)ccc12)NC(=O)[C@H](Cc1c[nH]cn1)NC(=O)[C@H](CC(N)=O)NC(=O)CNC(=O)COCCOCCNC(=O)COCCOCCNC(=O)CC[C@@H](NC(=O)CCCCCCCCCCCCCCCCC(=O)O)C(=O)O)C(C)C)C(N)=O) [Peptide 79]", "Units of measure": "µM", "hIP1 GRPR EC50": 0.529}
{"Binder": "Palmitoyl-[d(γGlu)][AEEA][AEEA]GNHWAV[dA]HL[Nle][Sar]-NH2 (SMILES CCCCCCCCCCCCCCCC(=O)N[C@H](CCC(=O)NCCOCCOCC(=O)NCCOCCOCC(=O)NCC(=O)N[C@@H](CC(N)=O)C(=O)N[C@@H](Cc1c[nH]cn1)C(=O)N[C@@H](Cc1c[nH]c2ccccc12)C(=O)N[C@@H](C)C(=O)N[C@H](C(=O)N[C@H](C)C(=O)N[C@@H](Cc1c[nH]cn1)C(=O)N[C@@H](CC(C)C)C(=O)N[C@@H](CCCC)C(=O)N(C)CC(N)=O)C(C)C)C(=O)O) [Peptide 15]", "Units of measure": "µM", "hIP1 GRPR EC50": 0.0014}
